Reported viability at 3 µM is given for each of the following molecules.
- ASSAY_TEXT: in vitro; also: reference of the scale not given here
- STATED_CONDITIONS: human, hepg2-a16-cd81egfp cells, % viability
OUTCOME_MEASURE: viability at 3 µM (%)

>  <MOLECULE>
Cc1ccccc1C1C(C#N)=C2N=C(N)c3c(sc4c3CCCCC4)N2C2=C1C(=O)CCC2 (stereo not drawn)

>  <OUTCOME_MEASURE>
viability at 3 µM

>  <OBSERVED_RESULT>
92.6

$$$$
>  <MOLECULE>
CCCC(=O)NC(c1ccc(OC)cc1)c1ccc2cccnc2c1O (stereo not drawn)

>  <OUTCOME_MEASURE>
viability at 3 µM

>  <OBSERVED_RESULT>
59.7

$$$$
>  <MOLECULE>
CCN1CCN(Cc2ccc(NC(=O)c3ccc(C)c(NC(=O)c4cc(-c5ccc(Br)cc5)[nH]n4)c3)cc2C(F)(F)F)CC1

>  <OUTCOME_MEASURE>
viability at 3 µM

>  <OBSERVED_RESULT>
99

$$$$
>  <MOLECULE>
COc1cnc(-c2ccccn2)nc1N(C)c1ccccc1

>  <OUTCOME_MEASURE>
viability at 3 µM

>  <OBSERVED_RESULT>
90.7

$$$$
>  <MOLECULE>
O=C(NC1=C(Nc2ccc(F)cc2)C(=O)c2ccccc2C1=O)c1ccc(Cl)cc1

>  <OUTCOME_MEASURE>
viability at 3 µM

>  <OBSERVED_RESULT>
97

$$$$
>  <MOLECULE>
OCC[n+]1ccc(/C=C/c2c[nH]c3ccccc23)cc1

>  <OUTCOME_MEASURE>
viability at 3 µM

>  <OBSERVED_RESULT>
90.7

$$$$
>  <MOLECULE>
C/C(=N\Nc1ncnc2sc(C)c(C)c12)c1ccccn1

>  <OUTCOME_MEASURE>
viability at 3 µM

>  <OBSERVED_RESULT>
40.2

$$$$
>  <MOLECULE>
Cc1ccc(S(=O)(=O)n2nccc2-c2c(-c3ccc(Cl)cc3)noc2C)cc1

>  <OUTCOME_MEASURE>
viability at 3 µM

>  <OBSERVED_RESULT>
101

$$$$
>  <MOLECULE>
Cc1cc(C)n(-c2nc(NC(C)C)nc(NC(C)C)n2)n1

>  <OUTCOME_MEASURE>
viability at 3 µM

>  <OBSERVED_RESULT>
105

$$$$

Where these numbers come from: paper PMC7822874
